Test: chemical genetic growth profiling, strain panel (AID 1159580);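 also: tested at 20 µM; growth read once vehicle control cultures reached saturation at 30 °C; 1 = growth at the plate median or of vehicle wells; lower values mean less growth of the strain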
Conditions: S. cerevisiae deletion strains, growth OD, locus YDR477W, strain SNF1
Out of some 5,500 compounds screened, about 2,000 (36%) were called active. About 18% were inconclusive and are not listed. Rule as the data show it: active = normalized growth mostly below about 0.91 (no sharp cut-off); inconclusive = no clear call, values can overlap the other calls; inactive = mostly above about 0.92. The list shows a part of the results.
Assign a class; possible classes are active, inactive

Some solved cases for reference:
[[record]]
structure_smiles = "CC(=O)/C(C#N)=N\\Nc1ccc(F)cc1"
label_value = "active"

[[record]]
structure_smiles = "O=[N+]([O-])c1ccc(-c2noc(-c3ccno3)n2)o1"
label_value = "active"


Query block: What call does the record list for N#C/C(=N/Nc1ccc(F)cc1)C(=O)c1ccccc1 ?
Result block: inactive

----------
Experiment: chemical genetic growth profiling, strain panel (AID 1159580)
Conditions: S. cerevisiae deletion strains, growth OD, locus YPR167C, strain met16, active compounds read low
The campaign covered roughly 5,500 compounds. About 2,000 (36%) were called active. About 18% were inconclusive and are not listed. This is one part of the list.
measured-property: normalized growth
I only need the number, thanks.

# example entries with known answers
[[record]]
compound = "CCC(C)C(=O)O[C@@H]1C[C@@]2(C)[C@H](c3ccoc3)OC(=O)CC23OC2(C)OC34[C@H](OC(=O)C(C)C)[C@@]3(O)[C@@H](OC(=O)C5(C)OC5C)[C@@]5(C)C[C@]3(O)[C@@](C)([C@H]5CC(=O)OC)C14O2 (some centres undefined)"
reading = 1.01

[[record]]
compound = "CC[C@@H](C(=O)C(C)[C@@H](O)[C@H](C)CCc1ccc(C)c(O)c1C(=O)O)C1OC(CC)(C2CC[C@](O)(CC)[C@H](C)O2)C[C@@H]1C (some centres undefined)"
reading = 1.02

[[record]]
compound = "CC1(C)S[C@@H]2[C@H](NC(=O)[C@H](N)c3ccccc3)C(=O)N2[C@H]1C(=O)O"
reading = 1.02

[[record]]
compound = "O=S(=O)(O)CCS"
reading = 0.98

[[record]]
compound = "Oc1ccc2c(c1)O[C@H](c1ccc(O)c(O)c1)[C@@H](O)C2"
reading = 0.996


Query block: Could you please provide reported normalized growth for O=C1c2ccc(O)cc2O[C@H](c2cc(O)c(O)c(O)c2)[C@H]1O ? Thanks!
Result block: 1.03

----------
Assay: chemical genetic growth profiling, strain panel (AID 1159580)
Conditions: S. cerevisiae deletion strains, growth OD, locus YMR219W, strain ESC1, active compounds read low
Hit rate of the full screen: of about 5,500 compounds, about 2,000 (36%) were called active. Another 18% or so got no clear call; they are omitted. The list shows a part of the results.
// values below are reported normalized growth
// response body must contain only the number

Look over these answered cases.
[[record]]
molecule = "O=C(CC1NCCN(Cc2ccccc2)C1=O)Nc1ccc(Cl)cc1 (stereo not drawn)"
reading = 1.01

[[record]]
molecule = "CCOC(=O)CNc1ccc(F)cc1"
reading = 0.997


Here's the next entry for you.
Query block: Give recorded normalized growth. CCCCCCCCCCCCN1CNC(=S)NC1
Result block: 0.786

----------
Test: chemical genetic growth profiling, strain panel (AID 1159580)
Conditions: S. cerevisiae deletion strains, growth OD, locus YNL233W, strain BNI4, active compounds read low
In all, about 5,500 compounds went through this assay and about 2,000 (36%) were called active. Roughly 18% stayed inconclusive and do not appear here. The list shows a part of the results.
measured-property: normalized growth
The response must contain the number and no unit.

// below: answered compounds
[[record]]
compound = "COc1c(N2CCNC(C)C2)c(F)cc2c(=O)c(C(=O)O)cn(C3CC3)c12 (stereo not drawn)"
reading = 1.01

[[record]]
compound = "C[n+]1c2cc(N)ccc2cc2ccc(N)cc21"
reading = 0.725

[[record]]
compound = "CC[C@H]1OC(=O)[C@H](C)[C@@H](O[C@H]2C[C@@](C)(OC)[C@@H](O)[C@H](C)O2)[C@H](C)[C@@H](O[C@@H]2O[C@H](C)C[C@H](N(C)C)[C@H]2O)[C@](C)(OC)C[C@@H](C)C(=O)[C@H](C)[C@@H](O)[C@]1(C)O"
reading = 0.982

[[record]]
compound = "CC1COc2c(N3CCN(C)CC3)c(F)cc3c(=O)c(C(=O)O)cn1c23 (stereo not drawn)"
reading = 1

[[record]]
compound = "COc1cc2nc(N(C)CCCNC(=O)C3CCCO3)nc(N)c2cc1OC (stereo not drawn)"
reading = 1.02

[[record]]
compound = "O=S(=O)(O)CCS"
reading = 1.02


Query block: // fetch normalized growth given entry Cc1ncc(CNC(=O)N(CCCl)N=O)c(N)n1
Result block: 1.01

Query block: For the compound NCCCS(=O)(=O)O , give its measured normalized growth value.
Result block: 0.987

Query block: // Input: CC1CCc2cc(F)cc3c(=O)c(C(=O)O)cn1c23 (stereo not drawn) . Output its normalized growth only.
Result block: 0.968

Query block: Output measured normalized growth for this item: O=C(Oc1cc(OC(=O)c2ccccc2)c2c(c1)O[C@H](c1ccc(OC(=O)c3ccccc3)c(OC(=O)c3ccccc3)c1)[C@@H](OC(=O)c1ccccc1)C2)c1ccccc1
Result block: 1.07

Query block: Please list normalized growth recorded for the compound CCC(C)C(=O)O[C@@H]1C[C@@]2(C)[C@H](c3ccoc3)OC(=O)CC23OC2(C)OC34[C@H](OC(=O)C(C)C)[C@@]3(O)[C@@H](OC(=O)C5(C)OC5C)[C@@]5(C)C[C@]3(O)[C@@](C)([C@H]5CC(=O)OC)C14O2 (stereo partly drawn)
Result block: 1.04

Query block: For COC(=O)C[C@H]1C2(C)CC34OC5(C)O[C@@]6([C@H](OC(C)=O)C(OC(C)=O)[C@]7(C)C(/C(=C(/O)C(C)C)C(=O)O[C@H]7c7ccoc7)[C@@]6(O5)[C@H](OC(C)=O)[C@@]3(O)C2OC(=O)C(C)C)[C@]14C (stereo partly drawn) , write its normalized growth.
Result block: 1.04

Query block: Let me know recorded normalized growth for CC[C@@]1(O)C[C@H](O[C@H]2C[C@H](N(C)C)[C@H](O)[C@H](C)O2)c2c(cc3c(c2O)C(=O)c2c(O)ccc(O)c2C3=O)[C@H]1C(=O)OC , thanks.
Result block: 0.0884

----------
Test: chemical genetic growth profiling, strain panel (AID 1159580);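 also: tested at 20 µM; growth read once vehicle control cultures reached saturation at 30 °C; 1 = growth at the plate median or of vehicle wells; lower values mean less growth of the strain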
Conditions: S. cerevisiae deletion strains, growth OD, locus YDL132W, strain cdc53
About 2,000 (36%) of roughly 5,500 compounds were called active. Not shown: some 18% with an inconclusive outcome. Cut-off read from the data, not from the text of the source: active = normalized growth mostly below about 0.91 (no sharp cut-off); inconclusive = no clear call, values can overlap the other calls; inactive = mostly above about 0.92. The list shows a part of the results.
Output constraint: value belongs to active, inactive

Query block: // return assay outcome for Cc1cc(C(=O)NNS(=O)(=O)c2ccc(F)c(Cl)c2)nn1-c1c(Cl)cc(Cl)cc1Cl
Result block: inactive

Query block: Hi team, can someone confirm the assay call for O=C(Nc1cccc(C(F)(F)F)c1)c1cncc(C#Cc2ccccc2)c1 ?
Result block: inactive

Query block: Identify the outcome logged in this assay for the compound shown: CC(C)(C)c1ccc(C(=N)SC(C(=O)C(F)(F)F)c2ccccc2)cc1 (stereo not given)
Result block: inactive

Query block: What call does the record list for CC(C)(C)c1ccc(N/N=C(\C#N)C(N)=O)cc1 ?
Result block: active

Query block: For this compound, state the assay outcome: N#C/C(=N/Nc1ccccc1)C(=O)c1ccccc1OC(F)(F)F
Result block: inactive

----------
Experiment: chemical genetic growth profiling, strain panel (AID 1159580);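 also: tested at 20 µM; growth read once vehicle control cultures reached saturation at 30 °C; 1 = growth at the plate median or of vehicle wells; lower values mean less growth of the strain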
Conditions: S. cerevisiae deletion strains, growth OD, locus YOR265W, strain rbl2, active compounds read low
In all, about 5,500 compounds went through this assay and about 2,000 (36%) were called active. About 18% were inconclusive and are not listed. The list shows a part of the results.
measured-property: normalized growth

Look over these answered cases.
[[record]]
molecule = "C[n+]1c2cc(N)ccc2cc2ccc(N)cc21"
reading = "0.599 (active)"

[[record]]
molecule = "C=CCc1ccc(OC)cc1"
reading = "1 (inactive)"

[[record]]
molecule = "C=C[C@@](C)(O)CCC1C(=C)CCC2[C@@](C)(CO)CCC[C@]12C (stereo partly specified)"
reading = "1.03 (inactive)"

[[record]]
molecule = "C=CCc1ccc(O)c(OC)c1"
reading = "0.999 (inactive)"

[[record]]
molecule = "COc1ccc(C(=O)O)cc1OC"
reading = "0.995 (inactive)"


Query block: Please report the measured normalized growth for CCOC(=O)n1ccn(C)c1=S
Result block: 0.988 (inactive)

----------
Experiment: chemical genetic growth profiling, strain panel (AID 1159580);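 also: tested at 20 µM; growth read once vehicle control cultures reached saturation at 30 °C; 1 = growth at the plate median or of vehicle wells; lower values mean less growth of the strain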
Conditions: S. cerevisiae deletion strains, growth OD, locus YLR221C, strain rsa3, active compounds read low
Screen size: about 5,500 compounds; about 2,000 (36%) were called active. Inconclusive results (about 18%) are left out. The list shows a part of the results.
measured-property: normalized growth
Enter the number alone.

[[record]]
molecule = "O=C1CCC(N2C(=O)c3ccccc3C2=O)C(=O)N1 (stereo not drawn)"
measured_property = "normalized growth"
reading = 1.03

[[record]]
molecule = "COC(=O)[C@@H]1OC(=O)C2OC23[C@@]1(C)CCC1[C@]2(C)C(C[C@H](O)[C@]13C)C(C)(C)[C@H](OC(C)=O)C[C@@H]2OC(C)=O (stereo partly drawn)"
measured_property = "normalized growth"
reading = 1.01


Query block: For the molecule NCCc1cnc[nH]1 , report normalized growth.
Result block: 1.05

Query block: Provide normalized growth value for the following molecule: CCC(C)C(=O)O[C@@H]1C[C@@]2(C)[C@H](c3ccoc3)OC(=O)CC23OC2(C)O[C@]14[C@]1(C)[C@@H](CC(=O)OC)C5(C)CC1(O)[C@](O)(C5OC(=O)C1(C)OC1C)[C@@H](OC(C)=O)[C@]34O2 (stereo partly drawn)
Result block: 0.978

Query block: Quote normalized growth reported for COc1ccc2c(c1)OC1(O)COc3cc(OC)c(OC)cc3C1=C2 (stereo not drawn) please.
Result block: 0.96
